Test: Cmax in Plasmodium falciparum 3D70087/N9 infected NSG mouse at 200 mg/kg, po by LC-MS/MS analysis
Type: ADME, organism-based
Parameters: route oral, dose 200 mg/kg
Details: in vivo
endpoint_name: Cmax (nM)

> print(dat)
                            compound.string  measured.value
1  CN1CCN(CC2CCN(c3nccc4[nH]c(-c5cc(F)cc(F)c5)nc34)CC2)CC1            2840

* * *

Assay: AUC in Balb/c mouse administered orally
Type: ADME
Conditions: in vivo, po
endpoint_name: AUC (µM·h)

> print(dat)
                            compound.string  measured.value
1  CS(=O)(=O)c1ccc(-c2cnc(N)c(-c3ccc(C(F)(F)F)nc3)c2)cc1             465

* * *

Catalogue of compounds with associated solubility thermodynamic at 20 h
Assay: Aqueous solubility of compound in phosphate buffer saline at pH 6.5 incubated for 20 hrs under shaking condition by shake-flask method based HPLC-DAD analysis
Type: physicochemical
Details: phosphate buffered saline
endpoint_name: solubility thermodynamic at 20 h (µM)

> print(dat)
                                    compound  operator.symbol  measured.value
 1  CN1CCN(CC2CCN(c3nccc4[nH]c(-c5cccc(OC(F)(F)F)c5)nc34)CC2)CC1                =             200
 2  CN1CCCN(c2nccc3[nH]c(-c4ccc(F)c(F)c4)nc23)CC1                =             170
 3  CN1CCOC2(CCN(c3nccc4[nH]c(-c5cc(F)cc(F)c5)nc34)CC2)C1                =             175
 4  CN(C)C1CCN(c2nccc3[nH]c(-c4cccc(OC(F)(F)F)c4)nc23)CC1                =             180
 5  Fc1ccc(-c2nc3c(N4CCN5CCCC5C4)nccc3[nH]2)cc1F (centres undefined)                =             120
 6  CN1CCN(CC2CCN(c3nccc4c3nc(-c3cc(F)cc(F)c3)n4C)CC2)CC1                =             150
 7  CN1CCN([C@H]2CC[C@@H](Nc3nccc4[nH]c(-c5cc(F)cc(F)c5)nc34)CC2)CC1                =             200
 8  CN1CCN(C2CCN(c3nccc4[nH]c(-c5cccc(OC(F)(F)F)c5)nc34)CC2)CC1                =             190
 9  CN1CCN(CC2CCN(c3nccc4[nH]c(-c5cccc(C(=O)N(C)C)c5)nc34)CC2)CC1                =             180
10  Fc1cc(F)cc(-c2nc3c(N4CCC(CN5CCN(CC(F)(F)F)CC5)CC4)nccc3[nH]2)c1                =             180
11  Fc1ccc(-c2nc3c(N4CCC(N5CCNCC5)CC4)nccc3[nH]2)cc1C(F)(F)F                =             200
12  CN1CCN(CC2CCN(c3cncc4[nH]c(-c5cc(F)cc(F)c5)nc34)CC2)CC1                =             125
13  CN1CCN(CC2CCN(c3nccc4[nH]c(C5CCCC5)nc34)CC2)CC1                <               5
14  CN1CCN([C@H]2CC[C@H](Nc3nccc4[nH]c(-c5cc(F)cc(F)c5)nc34)CC2)CC1                =             200

* * *

Test system: CHO
Experiment: Cytotoxicity against CHO cells assessed as reduction in cell viability by MTT assay
Type: cell-based, Cricetulus griseus
Conditions: chinese hamster
Catalogue of molecules with associated log10(CC50)
endpoint_name: log10(CC50) (log10 of the value in µM)

> print(dat)
                             compound.string  endpoint.name  measured.value
 1  Fc1cc(F)cc(-c2nc3c(N4CCC(CN5CCNCC5)CC4)nccc3[nH]2)c1    log10(CC50)            1.30
 2  CN1CCN(CC2CCN(c3nccc4[nH]c(-c5cccc(OC(F)(F)F)c5)nc34)CC2)CC1    log10(CC50)           -0.02
 3  Fc1ccc(-c2nc3c(N4CCC(N5CCNCC5)CC4)nccc3[nH]2)cc1C(F)(F)F    log10(CC50)            1.53
 4  CN1CCN(C2CCN(c3nccc4[nH]c(-c5cccc(OC(F)(F)F)c5)nc34)CC2)CC1    log10(CC50)            0.48
 5  Fc1ccc(-c2nc3c(N4CCN5CCC4CC5)nccc3[nH]2)cc1F    log10(CC50)            1.45
 6  CN1CCN(CC2CCN(c3nccc4[nH]c(-c5cc(F)cc(F)c5)cc34)CC2)CC1    log10(CC50)            0.41
 7  NC1CCN(c2nccc3[nH]c(-c4ccc(F)c(F)c4)nc23)CC1    log10(CC50)            0.91
 8  NC1CCN(c2nccc3[nH]c(-c4cccc(OC(F)(F)F)c4)nc23)CC1    log10(CC50)            1.62
 9  Fc1ccc(-c2nc3c(N4CCCNCC4)nccc3[nH]2)cc1F    log10(CC50)            0.86
10  CN1CCN(C2CCN(c3nccc4[nH]c(-c5cccc(C#N)c5)nc34)CC2)CC1    log10(CC50)            1.20
